Cited source: patent US20250027068

# TEST_TARGET: pooled human IgG
Below, each of the proteins is paired with its reported Enzyme Activity Endpoint Assay (purified): IgG value.
Give the number; ng/µL is assumed, so skip it.

Illustrative cases are given below, each with its answer.
PRT-152 (protein) MANQEIRYSEVTPYHVTSVWTKGVTPPANFTQGEDVFHAPYVANQGWYDITKTFNGKDDLLCGAATAGNMLHWWFDQNKTQIERYLKKHPEKQKINFNGEQMFDVKEAIDTKNHQLDSKLFEYFKEKAFPYLSTKHLGVFPDHVIDMFINGYRLSLTNHGPTPVKEGSKDPRGGIFDAVFTRGDQSKLLTSRHDFKEKNLKEISDLIKKELTEGKALGLSHTYANVRINHVINLWGADFDSNGNLKAIYVTDSDSNASIGMKKYFVGVNSAGKVAISAKEIKEDNIGAQVLGLFTLSTGKDSWEKTN = 0
PRT-160 (protein) MANQEIRYSEVTPYHVTTVWTDGVKPPTDFIKGEDVFHAPYKAHQGWYDITKTFNGKDDLLCGAATAGNMLHWWFDQNKDQIKRYLEEHPEKQKINFNGEQMFDVKEAIDTKNHQLDSKLFEYFKEKAFPYLSTKHLGVFPDHVIDMFINGYRLSLTNHGPTPVKEGSKDPRGGIFDAVFTRGDQSKLLTSRHDFKEKNLKEISDLIKKELQEGKALGLSHTYANVRINHVINLWGADFDSNGNLKAIYVTDSDSNASIGMKKYFVGVNSAGKVAISAKEIKEDNIGAQVLGLFTLSTGQDSWNQTN = 0
PRT-640 (protein) MQITSVWTKGVTPLTPEQFRYNNEDVIHAPYLAHQGWYDITKTFNGKDNLLCGAATAGNMLHWWFDQNKTEIEAYLSKHPEKQKIIFNNQELFDLKAAIDTKDSQTNSQLFNYFRDKAFPNLSARQLGVMPDLVLDMFINGYYLNVFKTQSTDVNRPYQDKDKRGGIFDAVFTRGDQTTLLTARHDLKNKGLNDISTIIKQELTEGRALALSHTYANVSISHVINLWGADFNAEGNLEAIYVTDSDADEKIGMKKYFVGINAHGHVAISAKKIEGENIGAQVLGLFTLSSGKDIWQKLSLEHHHHHH = 0
PRT-612 (protein) MQITSVWTKGVTPLTPEQFRYNNEDVIHAPYLAHQGWYDITKAFDGKDNLLCGAATAGNMLHWWFDQNKTEIEAYLSKHPEKQKIIFNNQELFDLRAAINSKDSQTNSQLFNYFRDKAFPNLSARQLGVMPDLVLDMFINGYYLNVFKTQSTDVNRPYQDKDKRGGIFDAVFTRGDQTTLLTARHDLKNKGLNDISTIIKQELTEGRALALSHTYANVSISHVINLWGADFNAEGNLEAIYVTDSDANASIGMKKYFVGINAHGHVAISAKKIEGENIGAQVLGLFTLSSGKDIWQKLSLEHHHHHH = 0

Kindly note the recorded Enzyme Activity Endpoint Assay (purified): IgG for PRT-83 (protein) MANQEIRYSEETPYHVTSVWTKGVTPPEKFTQGEDVFHAPYVANQGWYDITKTFNGKDDLLCGAATAGNMLHWWFDQNKDQIEAYLSKHPEKQKIMFGDQELLDVRKAINTKDSQTNSELFNYFRDKAFPNLSARRLGVMPDLVLDMFINGYRLNVTKTQTTDVNETYQEKDKRGGIFDAVFTRGDQSKLLTSRHDFKEKTLNEISDLIKKELTEGKALGISHTYANVRINHVINLWGADFNSEGNLEAIYVTDSDSNASIGMKKYFVGVNSAGKVAISAKEIEEENIGAQVLGLFTLSTGQDIWQQTN , which is 42
